molecular target: Isoleucine--tRNA ligase (Staphylococcus aureus, UniProt P41972); assay: Inhibitory activity against isoleucyl-tRNA synthetase (IRS) of Staphylococcus aureus 11481; assay type: functional
Sequence (P41972 whole entry): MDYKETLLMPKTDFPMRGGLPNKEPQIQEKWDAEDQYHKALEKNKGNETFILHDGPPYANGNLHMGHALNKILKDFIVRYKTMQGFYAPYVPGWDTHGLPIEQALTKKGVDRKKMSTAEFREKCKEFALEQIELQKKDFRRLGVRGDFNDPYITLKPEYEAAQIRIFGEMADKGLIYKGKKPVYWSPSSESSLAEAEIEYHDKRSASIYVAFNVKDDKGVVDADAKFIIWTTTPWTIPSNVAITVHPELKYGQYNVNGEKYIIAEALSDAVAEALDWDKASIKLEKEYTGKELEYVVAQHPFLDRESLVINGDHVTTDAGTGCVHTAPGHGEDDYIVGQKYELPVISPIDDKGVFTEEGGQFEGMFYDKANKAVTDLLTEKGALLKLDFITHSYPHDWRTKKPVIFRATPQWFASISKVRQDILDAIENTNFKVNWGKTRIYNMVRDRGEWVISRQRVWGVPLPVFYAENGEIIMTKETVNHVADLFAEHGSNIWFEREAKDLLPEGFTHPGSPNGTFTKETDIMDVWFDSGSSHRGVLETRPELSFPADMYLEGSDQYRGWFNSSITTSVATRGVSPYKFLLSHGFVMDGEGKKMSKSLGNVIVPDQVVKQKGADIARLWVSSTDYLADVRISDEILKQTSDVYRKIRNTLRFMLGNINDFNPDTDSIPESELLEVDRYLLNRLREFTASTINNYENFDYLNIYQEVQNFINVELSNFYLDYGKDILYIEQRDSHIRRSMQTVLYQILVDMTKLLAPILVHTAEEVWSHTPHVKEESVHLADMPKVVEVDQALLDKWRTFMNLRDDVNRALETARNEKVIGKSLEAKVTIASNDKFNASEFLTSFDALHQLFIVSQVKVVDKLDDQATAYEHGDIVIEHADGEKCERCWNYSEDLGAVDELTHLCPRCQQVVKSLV
reported endpoint: pIC50
Note on pIC50: it is the negative log10 of concentration, concentration in mol/L.

Reported pIC50 ( `C/C(=C\c1ncc(-c2ccc([N+](=O)[O-])s2)o1)C[C@@H]1OC[C@H](C[C@@H]2O[C@H]2[C@@H](C)[C@H](C)O)[C@@H](O)[C@H]1O` ) = 6.62

###

assay: Pharmacokinetic parameter Tmax was determined in blood level in mouse after subcutaneous administration.; format: ADME, organism-based; conditions: sc
reported endpoint: Tmax (min)
Field: numeric (min). Do not append units.

Reported Tmax ( `C/C(=C\c1ncc(-c2ccc([N+](=O)[O-])o2)o1)C[C@@H]1OC[C@H](C[C@@H]2O[C@H]2[C@@H](C)[C@H](C)O)[C@@H](O)[C@H]1O` ) = 5
